All values here come from patent US8669072B2.

- TARGET_OR_TEST_SYSTEM: GAL4 DBD-CfEcR(DEF)/VP16AD-MmRXRE (Choristoneura fumiferana)
- Construct: The wild-type D, E, and F domains from spruce budworm Choristoneura fumiferana EcR (“CfEcR-DEF”)
- RUN_DESCRIPTION: 13B3 assay: luciferase reporter gene induction in stable CHO clone 13B3
QUANTITY: EC50 (µM)
Give bare numbers, in µM.

COMPOUND | TARGET_OR_TEST_SYSTEM | QUANTITY | UNIT_ABBREVIATION | VALUE_OBSERVED
CCc1c(OC)cccc1C(=O)NN1C(c2cc(C)cc(C)c2)=NOC1(C)CC (stereo not drawn) | GAL4 DBD-CfEcR(DEF)/VP16AD-MmRXRE (Choristoneura fumiferana) | EC50 | µM | 2.95

Exam item: Record request: EC50 value, item CCc1c(OC)cccc1C(=O)NN1C(c2cc(C)cc(C)c2)=NOC1(C)C
Marked response: 12.3

----------
Please go through the items and note down their Fold Induction Average, 13B3 assay.
- TARGET_OR_TEST_SYSTEM: GAL4 DBD-CfEcR(DEF)/VP16AD-MmRXRE (Choristoneura fumiferana, UniProt O77240)
- Construct: The wild-type D, E, and F domains from spruce budworm Choristoneura fumiferana EcR (“CfEcR-DEF”)
- RUN_DESCRIPTION: 13B3 assay: luciferase reporter gene induction in stable CHO clone 13B3
- Type: cell-based
- MEASUREMENT_PARAMETERS: 33/33.3 μM ligand, 48 h, RLU relative to DMSO
Numbers only.

Solved entries:
MOL | Fold Induction Average, 13B3 assay
Cc1cc(C)cc(C2=NOC(C)(C)N2NC(=O)NCc2ccccc2)c1 | 0.9
CC1(C)ON=C(c2ccc3c(c2)OCO3)N1NC(=O)c1ccco1 | 1.1
COc1ccc(C2=NOC(C)(C)N2NC(=O)c2cc3ccccc3s2)c(OC)c1 | 0.9

For each entry beneath this line, provide reported Fold Induction Average, 13B3 assay.
1. Cc1cc(C)cc(C2=NOC3(CCCC3)N2NC(=O)Cc2ccccc2)c1
2. CC1(C)ON=C(c2ccc3c(c2)OCO3)N1NC(=O)COCc1ccccc1
3. CC1(C)ON=C(c2ccc(OC(F)(F)F)cc2)N1NC(=O)Nc1ccccc1
4. CCOC(=O)CCC(=O)NN1C(c2ccc3c(c2)OCO3)=NOC1(C)C
5. Cc1cc(C)cc(C2=NOC3(CCOCC3)N2NC(=O)COCc2ccccc2)c1
6. CC1(C)ON=C(c2ccc(OC(F)(F)F)cc2)N1NC(=O)Cc1ccccc1

Marked response:
1. 1.3
2. 1.4
3. 0.5
4. 1.3
5. 1.3
6. 0.3

Your task in this section: give Fold Induction Average, 13B3 assay for each listed record.
1. COc1ccccc1C1=NOC(C)(C)N1NC(=O)c1cc2ccccc2s1
2. Cc1cc(C)cc(C2=NOC(C)(C)N2NC(=O)NC(=O)c2ccccc2)c1
3. CCOC(=O)CCC(=O)NN1C(c2ccccc2OC)=NOC1(C)C

Marked response:
1. 973.9
2. 0.6
3. 0.1

Please report Fold Induction Average, 13B3 assay for every entry that follows.
1. CCOC(=O)CCC(=O)NN1C(c2ccc(Cl)cc2)=NOC1(C)C
2. Cc1cc(C)cc(C2=NOC3(CCCC3)N2NC(=O)c2cc3ccccc3s2)c1
3. CC1(C)ON=C(c2cccc(C(F)(F)F)c2)N1NC(=O)Nc1ccccc1
4. CC1(C)ON=C(c2ccc(OC(F)(F)F)cc2)N1NC(=O)c1ccco1
5. CC1(C)ON=C(c2ccc(Cl)cc2)N1NC(=O)COc1ccccc1
6. COc1ccccc1C1=NOC(C)(C)N1NC(=O)c1ccco1

Marked response:
1.7
264.3
3.3
0.6
0.9
0.7

Exam item: Identify the measured Fold Induction Average, 13B3 assay of Cc1cc(C)cc(C2=NOC3(CCCC3)N2NC(=O)COCc2ccccc2)c1 for GAL4 DBD-CfEcR(DEF)/VP16AD-MmRXRE (Choristoneura fumiferana, UniProt O77240).
Marked response: 0.7
